The origin of these recorded values is patent US20130071921A1.

- measurement-target: T1, Recombinant human Dkk-1 (R&D Systems cat no. 1096-DK/CF), 10xHis tag at the C terminal (human, UniProt O94907 32-266)
- T1 construct: the actual N-terminus of the purified protein is marked in bold italic after residue 30, but the mark is an image lost in the text; also called rhuDkk-1; hDkk-1
- T1 sequence: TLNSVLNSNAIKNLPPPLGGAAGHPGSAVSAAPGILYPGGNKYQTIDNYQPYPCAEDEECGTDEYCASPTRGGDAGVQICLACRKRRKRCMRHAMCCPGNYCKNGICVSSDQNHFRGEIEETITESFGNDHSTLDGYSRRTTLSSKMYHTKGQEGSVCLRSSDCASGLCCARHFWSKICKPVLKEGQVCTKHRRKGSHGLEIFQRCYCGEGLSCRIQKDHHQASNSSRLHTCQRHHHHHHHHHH
- assay-text: SPR 37C (BIAcore/ProteOn), hDkk-1 series over captured IgG (taken so as kon is printed)
quantity-kind: Kd (nM)
Field format: number, assumed nM, no unit text.

Would you please look over these solved cases?
4E8.33L (antibody, V domains shown) VH: EVQLVESGGGLVQPGGSLRLSCAASGFTFSSYAISWVRQAPGKGLEWVASVSGWLDTYYPDSVKGRFTISRDNAKNSLYLQMNSLRAEDTAVYYCATSLENYAFDYWGQGTTVTVSS VL: EIVLTQSPATLSLSPGERATLSCRASESVDDFGISFINWYQQKPGQAPRLLIYAGSKQGSGIPARFSGSGSGTDFTLTISSLEPEDFAVYYCQQLKEVPPTFGGGTKVEIK ... 0.008
36H.33L (antibody, V domains shown) VH: EVQLVESGGGLVQPGGSLRLSCAASGFTFSSYAISWVRQAPGKGLEWVASVSGWFDTYYPDSVKGRFTISRDNAKNSLYLQMNSLRAEDTAVYYCATSLRNYAFDYWGQGTTVTVSS VL: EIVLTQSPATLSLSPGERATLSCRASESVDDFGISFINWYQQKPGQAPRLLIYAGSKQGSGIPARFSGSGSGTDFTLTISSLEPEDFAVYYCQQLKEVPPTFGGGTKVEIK ... 0.017
4F10.33L (antibody, V domains shown) VH: EVQLVESGGGLVQPGGSLRLSCAASGFTFSSYAISWVRQAPGKGLEWVASVSGTGLGFQTYYPDSVKGRFTISRDNAKNSLYLQMNSLRAEDTAVYYCATSLKNYAFDYWGQGTTVTVSS VL: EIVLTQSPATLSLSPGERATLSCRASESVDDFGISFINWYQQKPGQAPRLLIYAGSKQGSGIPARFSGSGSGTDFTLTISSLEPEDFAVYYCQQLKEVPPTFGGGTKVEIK ... 0.037

Now look at this one.
Query block: For the binder shown here, 2E11.33L (antibody, V domains shown) VH: EVQLVESGGGLVQPGGSLRLSCAASGFTFSSYAISWVRQAPGKGLEWVASVSGTGLGFQTYYPDSVKGRFTISRDNAKNSLYLQMNSLRAEDTAVYYCATSLRNYAFDYWGQGTTVTVSS VL: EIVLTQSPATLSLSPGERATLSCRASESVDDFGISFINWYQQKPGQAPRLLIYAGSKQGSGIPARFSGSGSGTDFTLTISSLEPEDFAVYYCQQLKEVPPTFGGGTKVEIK , give the reported Kd.
Result block: 0.03
